GI50 reference
- System: A498 renal
- assay: NCI tumour cell line growth inhibition, 48 h
endpoint: GI50

{"molecule": "C=C(c1ccc(C(=O)NCCCn2ccnc2)cc1)c1cc2c(cc1C)C(C)(C)CCC2(C)C", "target.system": "A498 renal", "result": "25.2 µM"}
{"molecule": "COc1cc(-c2ccc[nH]2)[nH]c1/C=C1\\N=C(C)C(C(=O)NC(C)C)=C1C", "target.system": "A498 renal", "result": "8.91 µM"}
{"molecule": "Oc1ccccc1/C=N/c1nc(-c2ccccc2)cs1", "target.system": "A498 renal", "result": "77 µM"}
{"molecule": "COc1ccc2cc1Oc1ccc(cc1)CC1c3c(cc(OC)c4c3Oc3cc5c(cc3O4)CCNC5C2)CCN1C (stereo unspecified)", "target.system": "A498 renal", "result": "1.64 µM"}
{"molecule": "COc1ccc(-c2nc3sccn3c2/C=C/C(=O)c2cc(OC)c(OC)c(OC)c2)cc1", "target.system": "A498 renal", "result": "2.52 µM"}
{"molecule": "O=C(NCCNC1=CC(=O)c2nc3ccccc3c3ccnc1c23)c1cnccn1", "target.system": "A498 renal", "result": "> 100 µM"}
{"molecule": "CCCCCCC1CCCCN1C(c1ccccc1)C(O)c1ccccc1 (stereo unspecified)", "target.system": "A498 renal", "result": "11.1 µM"}
{"molecule": "C#CCN(CCCOc1ccc(Cl)cc1Cl)CCCSC(=O)CCCCCN1/C(=C\\C=C2/CCCC(/C=C/C3=[N+](CCCCCC(=O)[O-])c4ccccc4C3(C)C)=C2Cl)C(C)(C)c2ccccc21", "target.system": "A498 renal", "result": "1.31 µM"}
{"molecule": "O=C(Nc1ccc(-n2cc(-c3ccncc3)c(-c3ccc(Cl)c(O)c3)n2)cc1)c1ccc(Cl)c(Cl)c1", "target.system": "A498 renal", "result": "35.7 µM"}
{"molecule": "Cc1ncc([N+](=O)[O-])n1CCOc1ccc(C(=O)/C=C/c2ccc(C(F)(F)F)cc2)cc1", "target.system": "A498 renal", "result": "6.57 µM"}
{"molecule": "COc1ccccc1CNCCCN1C(=O)c2ccc3c4c(ccc(c24)C1=O)C(=O)N(CCCNCCCCN)C3=O", "target.system": "A498 renal", "result": "0.972 µM"}
